These data points were gathered from ChEMBL document CHEMBL5214932.

experiment: Cytotoxicity against human IM-9 cells assessed as cell growth inhibition; format: toxicity, cell-based
observation type: IC50 (nM)
Please respond with the number in nM and leave the unit unwritten.

CCOc1ccc(Cl)cc1-c1nc(N)nc(Nc2ccc(Cl)cc2)n1 = 20

Turning now to a further record.
Which value of IC50 has been reported for Cc1ccc(Cl)cc1-c1nc(N)nc(Nc2ccc(Br)cc2)n1 in the records?
50

###

test system: RT-4; experiment: Cytotoxicity against human RT-4 cells assessed as cell growth inhibition measured after 96 hrs by microplate reader analysis; assay type: functional, cell-based; conditions: RT-4, 96 h
observation type: IC50 (µM)
Number only, in µM; omit the unit.

// IC50 lookup, key: CCN(CC)c1ccc2cc(-c3nc(N)nc(N4CCN(c5ccccc5)CC4)n3)c(=N)oc2c1
1.66

###

molecular target: UniProtKB P08908
Sequence (P08908 whole entry): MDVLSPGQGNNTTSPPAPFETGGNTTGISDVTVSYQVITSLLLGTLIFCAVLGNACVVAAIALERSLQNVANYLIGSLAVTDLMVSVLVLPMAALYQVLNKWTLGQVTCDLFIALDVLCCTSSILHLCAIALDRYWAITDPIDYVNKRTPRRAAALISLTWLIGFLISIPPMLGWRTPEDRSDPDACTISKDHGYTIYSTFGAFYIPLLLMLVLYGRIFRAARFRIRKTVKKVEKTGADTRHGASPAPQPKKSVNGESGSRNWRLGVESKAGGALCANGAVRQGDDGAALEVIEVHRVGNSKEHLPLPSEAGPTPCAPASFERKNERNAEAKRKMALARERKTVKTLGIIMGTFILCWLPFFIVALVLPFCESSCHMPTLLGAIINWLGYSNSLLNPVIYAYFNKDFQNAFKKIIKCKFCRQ
Measured Ki accompanies every entry in the list below.
Reply numerically in µM, unit not repeated.

CN1CCN(c2nc(N)nc(C(C)(C)Sc3ccc4ccccc4c3)n2)CC1 = 2.29

Entry CN1CCN(c2nc(N)nc(Cc3c[nH]c4ccccc34)n2)CC1 : reported Ki = ?
9.45

###

test system: HEC-1-A; experiment: Cytotoxicity against human HEC-1-A cells assessed as cell growth inhibition; assay type: functional, cell-based
observation type: IC50 (nM)
Numeric only. Scale: nM

Example cases with answers are listed next.
CCOc1ccc(Cl)cc1-c1nc(N)nc(Nc2ccc(Cl)cc2)n1 = 54
CCOc1ccc(Cl)cc1-c1nc(N)nc(Nc2ccc(CO)cc2)n1 = 41

Sample Cc1ccc(Cl)cc1-c1nc(N)nc(Nc2ccc(Br)cc2)n1 — what was its IC50?
100

###

Each record here notes measured IC50.
system: Human immunodeficiency virus 1; test: Antiviral activity against NNRTI resistant HIV1 harboring Lys103Asn mutant infected in human MT4 cells assessed as reduction in virus-induced cytopathic effect measured after 5 days by MTT assay; format: functional, organism-based; conditions: Human immunodeficiency virus 1, MT4, 120 h
Please provide the amount together with its unit, number first.

Please review the following examples before continuing.
N#Cc1ccc(Nc2nc(N)nc(Cc3c(Cl)ccc4[nH]ccc34)n2)cc1 = 0.063 µM
Cc1cc(C)c(Cc2nc(N)nc(Nc3ccc(C#N)cc3)n2)c(C)c1 = 0.003 µM

Any idea what IC50 came out for N#Cc1ccc(Nc2nc(N)nc(Cc3c(Cl)cccc3Cl)n2)cc1 on Human immunodeficiency virus 1?
0.04 µM

###

Target: NADPH oxidase 3 (Homo sapiens)
Sequence (Q9HBY0 whole entry): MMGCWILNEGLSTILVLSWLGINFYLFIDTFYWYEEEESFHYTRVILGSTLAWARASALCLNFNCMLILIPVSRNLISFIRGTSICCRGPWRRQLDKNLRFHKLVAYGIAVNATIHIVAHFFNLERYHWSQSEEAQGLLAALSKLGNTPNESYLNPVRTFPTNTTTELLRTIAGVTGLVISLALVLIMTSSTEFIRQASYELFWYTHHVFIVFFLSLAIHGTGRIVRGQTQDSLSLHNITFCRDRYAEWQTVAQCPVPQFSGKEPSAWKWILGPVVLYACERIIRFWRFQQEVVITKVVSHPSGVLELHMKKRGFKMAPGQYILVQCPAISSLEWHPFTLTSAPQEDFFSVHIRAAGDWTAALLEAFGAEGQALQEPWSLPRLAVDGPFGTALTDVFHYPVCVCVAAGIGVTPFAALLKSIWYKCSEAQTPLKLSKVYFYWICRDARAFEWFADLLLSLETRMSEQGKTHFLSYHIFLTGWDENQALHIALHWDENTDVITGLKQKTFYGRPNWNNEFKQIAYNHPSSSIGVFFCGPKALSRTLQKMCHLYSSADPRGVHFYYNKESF
observation type: IC50 (µM)
// note: answer is a bare numeric in µM

Which IC50 is reported for this molecule? COc1cccc(N2CCN(Cc3nc(N)nc(Nc4ccc(C)c(C)c4)n3)CC2)c1
1.25

###

test system: Human immunodeficiency virus 1; assay: Antiviral activity against wild type HIV1 IIIB assessed as viral growth inhibition measured after 5 days by MTT assay; assay type: functional, organism-based; settings: Human immunodeficiency virus 1, IIIB, 120 h
observation type: IC50 (nM)
Kindly provide the numeric value in nM only, without the unit symbol.

Worked examples, 2 molecules total:
N#Cc1ccc(Nc2nc(N)nc(Cc3c(Cl)cccc3Cl)n2)cc1 = 2
N#C/C=C/c1cccc(Oc2cc(Nc3nc(N)nc(C4CC4)n3)ccc2C#N)c1 = 43

In the following, a different molecule is considered.
Quick one: IC50 of N#Cc1ccc(Nc2nc(N)nc(Cc3c(Cl)ccc4[nH]ccc34)n2)cc1 ?
3

###

tested on: Jurkat; experiment: Cytotoxicity against human Jurkat cells assessed as cell growth inhibition measured after 72 hrs by MTS assay; type: functional, cell-based
observation type: pIC50
Give only the number. pIC50 is defined as minus log10 of concentration in molar units.

Recorded pIC50 for Nc1nc(-c2ccccc2)nc(N2CCc3ccccc3C2)n1 , please?
5.71

###

assay: Cytotoxicity against human MT2 cells assessed as cell growth inhibition by MTT assay; type: toxicity, cell-based
observation type: pIC50
Lab note — pIC50 values are minus log10 of concentrations in M.

pIC50 lookup needed for N#C/C=C/c1cccc(Oc2cc(Nc3nc(N)nc(C4CC4)n3)ccc2C#N)c1 , thanks.
5.77

###

target: D(2) dopamine receptor (Homo sapiens); assay: Displacement of [3H]-Raclopride from human dopamine D2 receptor expressed in HEK293 cells by radioligand binding assay
Sequence (P14416 whole entry): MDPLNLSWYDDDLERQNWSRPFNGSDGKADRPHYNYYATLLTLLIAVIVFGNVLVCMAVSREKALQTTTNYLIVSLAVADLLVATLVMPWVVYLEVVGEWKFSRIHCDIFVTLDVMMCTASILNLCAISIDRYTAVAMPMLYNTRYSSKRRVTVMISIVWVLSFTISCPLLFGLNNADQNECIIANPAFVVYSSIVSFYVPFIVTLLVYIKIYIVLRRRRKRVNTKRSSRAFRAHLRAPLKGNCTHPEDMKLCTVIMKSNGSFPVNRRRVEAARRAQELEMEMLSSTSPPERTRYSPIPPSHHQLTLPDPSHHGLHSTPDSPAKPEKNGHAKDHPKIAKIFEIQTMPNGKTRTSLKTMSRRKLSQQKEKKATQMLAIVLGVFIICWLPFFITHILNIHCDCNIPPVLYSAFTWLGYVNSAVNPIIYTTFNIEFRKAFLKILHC
observation type: Ki (nM)
Record the value in nM, omitting the unit from your answer.

CN1CCN(c2nc(N)nc(Cc3c[nH]c4ccccc34)n2)CC1 = 1950

Now, please, on to the next compound.
Dear colleague, I am looking for the recorded Ki of the following compound: CN1CCN(c2nc(N)nc(C(C)(C)Sc3ccc4ccccc4c3)n2)CC1
300

###

target: UniProt P34969
Sequence (P34969 whole entry): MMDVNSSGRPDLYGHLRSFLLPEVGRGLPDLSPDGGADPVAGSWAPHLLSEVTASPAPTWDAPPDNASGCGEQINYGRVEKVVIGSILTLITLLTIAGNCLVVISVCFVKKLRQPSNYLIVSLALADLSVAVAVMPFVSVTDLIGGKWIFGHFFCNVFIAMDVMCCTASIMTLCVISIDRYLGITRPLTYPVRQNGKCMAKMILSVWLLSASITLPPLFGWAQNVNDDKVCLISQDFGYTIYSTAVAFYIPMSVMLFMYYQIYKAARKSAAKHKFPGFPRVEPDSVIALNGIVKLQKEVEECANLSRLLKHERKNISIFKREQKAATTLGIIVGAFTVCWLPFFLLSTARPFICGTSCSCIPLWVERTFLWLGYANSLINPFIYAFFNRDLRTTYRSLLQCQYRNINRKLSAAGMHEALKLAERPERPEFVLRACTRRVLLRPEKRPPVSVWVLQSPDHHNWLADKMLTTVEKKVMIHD
observation type: Ki
Answer format reminder: number followed by unit.

Below are worked cases with known answers.
CCC(Oc1cc(Cl)ccc1Cl)c1nc(N)nc(N2CCN(C)CC2)n1 (stereo not drawn) = 5.71 µM
CN1CCN(c2nc(N)nc(Cc3c[nH]c4ccccc34)n2)CC1 = 16.8 µM

Read the next record carefully.
Test system UniProt P34969; read-out Ki; what value for CN1CCN(c2nc(N)nc(C(C)(C)Sc3ccc4ccccc4c3)n2)CC1 ?
0.61 µM
